The reported numbers originate from patent US20200071424A1.

The following binders are shown together with reported pKd values.
test target: T1, human [1-305]-mouse chimeric EL (human; mouse, UniProt Q9WVG5 306-500)
T1 construct: Heparin extract, captured or detected by an anti-C2-tag antibody; also called human-mouse chimeric EL
T1 sequence: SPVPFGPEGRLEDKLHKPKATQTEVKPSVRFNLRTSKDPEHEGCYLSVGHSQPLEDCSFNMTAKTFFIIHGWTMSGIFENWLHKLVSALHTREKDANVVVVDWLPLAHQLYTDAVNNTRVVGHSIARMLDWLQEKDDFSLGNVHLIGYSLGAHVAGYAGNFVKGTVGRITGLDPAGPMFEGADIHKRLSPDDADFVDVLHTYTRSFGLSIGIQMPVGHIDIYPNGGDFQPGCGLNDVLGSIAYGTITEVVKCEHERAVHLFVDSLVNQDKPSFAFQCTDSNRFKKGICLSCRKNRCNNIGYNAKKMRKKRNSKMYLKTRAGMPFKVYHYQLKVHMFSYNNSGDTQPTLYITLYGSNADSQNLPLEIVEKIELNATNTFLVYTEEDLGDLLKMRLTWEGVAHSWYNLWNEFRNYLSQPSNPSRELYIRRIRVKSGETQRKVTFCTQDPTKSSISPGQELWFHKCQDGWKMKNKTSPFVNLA
protocol: Biacore; EL captured by anti-C2-tag Ab; bivalent fit
Description: The binding affinities of anti-EL antibodies were measured using Biacore. […] Then, anti-EL humanized antibodies were added and the binding affinities were calculated by bivalent fitting of BIAevaluation software.
pKd: −log10 of the molar value.
test readout: pKd

{"binder": "h55A1-F3 (antibody, V domains shown, humanized) VH: QVQLVQSGAEVKKPGASVKVSCKASGYTFTNYGMNWVRQAPGQGLEWMGWINTYSGVPTYAGDFKGRVTMTTDTSTSTAYMELRSLRSDDTAVYYCARRGYYGRRYFDVWGKGTTVTVSS VL: DIQLTQSPSSLSASVGDRVTITCKASQSVDYDVDSYMHWYQQKPGKAPKLLIYAASNLASGVPSRFSGSGSGTDFTLTISSLQPEDFATYYCQQTIEDPPTFGGGTKVEIK", "reading": 9.54}
{"binder": "h55A1-S5 (antibody, V domains shown, humanized) VH: QVQLVQSGSELKKPGASVKVSCKASGYTFTNYAMNWVRQAPGQGLEWMGWINTYSGVGTYAGDFKGRFVFSLDTSVSTAYLQISSLKAEDTAVYYCARRGFYGRRFFDVWGKGTTVTVSS VL: DIVLTQSPASLAVSPGQRATITCKASQSVDYDVDSYMHWYQQKPGQPPKLLIYAASNLASGVPARFSGSGSGTDFTLTINPVEANDTANYYCQNTIEDPPTFGGGTKVEIK", "reading": 7.92}
{"binder": "h55A1-F5 (antibody, V domains shown, humanized) VH: QVQLVQSGAEVKKPGASVKVSCKASGYTFTNYGMNWVRQAPGQGLEWMGWINTYSGVPTYAGDFKGRFTFTLDTSTSTAYMELSSLRSEDTAVYYCARRGYYGRRYFDVWGKGTTVTVSS VL: DIQLTQSPSSLSASVGDRVTITCKASQSVDYDVDSYMHWYQQKPGKAPKLLIYAASNLASGVPSRFSGSGSGTDFTLTISSLQPEDFATYYCQQTIEDPPTFGGGTKVEIK", "reading": 9.96}
